The origin of these recorded values is the supplement of paper PMC9112550.

System: Escherichia coli TOP10;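 further: peptides expressed intracellularly from a pBAD plasmid library in pooled LB shake-flask culture, induced with 0.3% L-arabinose, DNA abundance read by NGS, three biological replicates, DESeq2 with apeglm shrinkage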
Assay: shrunken log2 fold change of peptide-encoding DNA abundance (4.5 h post-induction vs induction); higher = less antimicrobial activity (less host growth inhibition)
Details: time post-induction: 4.5 h; library: site-saturation at positions 5, 18, 19, 20
Could you label it Condition met if measured shrunken log2 fold change is -0.1 or higher, and Condition not met otherwise?

Challenge: Can RRIRRRPPRLPRPRPRPLGSPRP be said to have shrunken log2 fold change at or above -0.1?
Response given: Condition met

Challenge: Please check the record RRIRKRPPRLPRPRPRPCRPPRP and state if its shrunken log2 fold change is at or above -0.1.
Response given: Condition met

Challenge: Decide: shrunken log2 fold change of RRIRTRPPRLPRPRPRPSKPPRP >= -0.1?
Response given: Condition not met

Challenge: Test whether the sequence RRIRRRPPRLPRPRPRPFNHPRP records shrunken log2 fold change of -0.1 or higher.
Response given: Condition not met

Challenge: Would you say RRIRKRPPRLPRPRPRPAKWPRP shows shrunken log2 fold change at minimum -0.1?
Response given: Condition met

Challenge: Please indicate if the recorded shrunken log2 fold change for RRIRYRPPRLPRPRPRPMLEPRP meets or exceeds -0.1.
Response given: Condition met

Challenge: hey, is shrunken log2 fold change for this one >= -0.1? RRIRMRPPRLPRPRPRPMLFPRP
Response given: Condition met

Challenge: Would you say RRIRGRPPRLPRPRPRPNIDPRP shows shrunken log2 fold change at minimum -0.1?
Response given: Condition met

Challenge: For this sequence, is measured shrunken log2 fold change -0.1 or higher? RRIRERPPRLPRPRPRPSFIPRP
Response given: Condition not met

Challenge: Exam item: decide whether the reported shrunken log2 fold change for RRIRFRPPRLPRPRPRPKNSPRP is at least -0.1.
Response given: Condition not met

Challenge: Can RRIRNRPPRLPRPRPRPSPLPRP be said to have shrunken log2 fold change at or above -0.1?
Response given: Condition not met

Challenge: Reported shrunken log2 fold change reaches at least -0.1 for RRIRGRPPRLPRPRPRPCYYPRP ?
Response given: Condition met

Challenge: Hello, I need to know if RRIRPRPPRLPRPRPRPDSGPRP has measured shrunken log2 fold change not below -0.1. Thanks!
Response given: Condition met

Challenge: Item RRIRKRPPRLPRPRPRPGVAPRP with shrunken log2 fold change of -0.1 or above?
Response given: Condition met

Challenge: Does the reported shrunken log2 fold change for RRIRRRPPRLPRPRPRPSVVPRP fall at or above the -0.1 mark?
Response given: Condition met

Challenge: # bool: shrunken log2 fold change of RRIRFRPPRLPRPRPRPCHAPRP >= -0.1
Response given: Condition not met

Challenge: API: above_or_equal(metric=shrunken log2 fold change, cutoff=-0.1) for item RRIRQRPPRLPRPRPRPQCYPRP
Response given: Condition not met

Challenge: Can RRIRPRPPRLPRPRPRPMPDPRP be said to have shrunken log2 fold change at or above -0.1?
Response given: Condition met

Challenge: Is shrunken log2 fold change for RRIRGRPPRLPRPRPRPGFIPRP at or above -0.1?
Response given: Condition met

Challenge: Does shrunken log2 fold change meet or surpass -0.1 for RRIRERPPRLPRPRPRPNNWPRP ?
Response given: Condition not met

Challenge: Tell me whether shrunken log2 fold change is at least -0.1 here: RRIRQRPPRLPRPRPRPPWPPRP
Response given: Condition met

Challenge: Kindly determine if shrunken log2 fold change recorded for RRIRSRPPRLPRPRPRPPVKPRP is above or exactly -0.1.
Response given: Condition not met

Challenge: Textbook exercise: given the entry RRIRMRPPRLPRPRPRPFEQPRP , state whether its shrunken log2 fold change is greater than or equal to -0.1.
Response given: Condition met

Challenge: Entry RRIRQRPPRLPRPRPRPLYPPRP : is its shrunken log2 fold change no less than -0.1?
Response given: Condition not met

Challenge: shrunken log2 fold change >= -0.1 for RRIRPRPPRLPRPRPRPPVMPRP ?
Response given: Condition met

Challenge: Check this sequence for shrunken log2 fold change at or above -0.1: RRIRHRPPRLPRPRPRPRQMPRP
Response given: Condition met

Challenge: Please tell me: is the sequence RRIRQRPPRLPRPRPRPKKHPRP at or over -0.1 in terms of shrunken log2 fold change?
Response given: Condition not met

Challenge: shrunken log2 fold change >= -0.1 for RRIRTRPPRLPRPRPRPISTPRP ?
Response given: Condition not met

Challenge: Given the entry RRIRFRPPRLPRPRPRPNCSPRP , answer whether its shrunken log2 fold change meets or surpasses -0.1.
Response given: Condition not met

Challenge: Confirm if shrunken log2 fold change reported for the sequence RRIRKRPPRLPRPRPRPFKQPRP is -0.1 or above.
Response given: Condition met

Challenge: Answer whether shrunken log2 fold change of RRIRSRPPRLPRPRPRPFFKPRP is greater than or equal to -0.1.
Response given: Condition not met

Challenge: Record RRIRCRPPRLPRPRPRPCQMPRP ; criterion: shrunken log2 fold change no lower than -0.1. Met?
Response given: Condition not met

Challenge: Please tell me: is the sequence RRIRKRPPRLPRPRPRPCTTPRP at or over -0.1 in terms of shrunken log2 fold change?
Response given: Condition not met

Challenge: For this sequence, is measured shrunken log2 fold change -0.1 or higher? RRIRVRPPRLPRPRPRPLYFPRP
Response given: Condition not met

Challenge: Is it the case that RRIRRRPPRLPRPRPRPQNYPRP has shrunken log2 fold change reaching or exceeding -0.1?
Response given: Condition not met

Challenge: Check this sequence for shrunken log2 fold change at or above -0.1: RRIRDRPPRLPRPRPRPNFAPRP
Response given: Condition met

Challenge: Does the sequence RRIRQRPPRLPRPRPRPGCWPRP have recorded shrunken log2 fold change that is -0.1 or more?
Response given: Condition met

Challenge: Hi, just wondering whether RRIRTRPPRLPRPRPRPNPIPRP shows shrunken log2 fold change of -0.1 or higher.
Response given: Condition not met

Challenge: Does the sequence RRIRYRPPRLPRPRPRPNMEPRP have recorded shrunken log2 fold change that is -0.1 or more?
Response given: Condition not met

Challenge: Assess whether reported shrunken log2 fold change for RRIRFRPPRLPRPRPRPDARPRP sits at -0.1 or higher.
Response given: Condition met

Challenge: Is shrunken log2 fold change at least -0.1? Consider RRIRCRPPRLPRPRPRPFKHPRP
Response given: Condition not met

Challenge: Does shrunken log2 fold change meet or surpass -0.1 for RRIRLRPPRLPRPRPRPDCIPRP ?
Response given: Condition met

Challenge: Kindly determine if shrunken log2 fold change recorded for RRIRCRPPRLPRPRPRPPCKPRP is above or exactly -0.1.
Response given: Condition not met

Challenge: Is it the case that RRIRGRPPRLPRPRPRPLNPPRP has shrunken log2 fold change reaching or exceeding -0.1?
Response given: Condition met

Challenge: Tell me whether shrunken log2 fold change is at least -0.1 here: RRIRGRPPRLPRPRPRPEQYPRP
Response given: Condition not met

Challenge: Please tell me: is the sequence RRIRARPPRLPRPRPRPTWSPRP at or over -0.1 in terms of shrunken log2 fold change?
Response given: Condition met

Challenge: Could you verify whether the entry RRIRHRPPRLPRPRPRPVVKPRP shows shrunken log2 fold change of no less than -0.1?
Response given: Condition not met

Challenge: Given RRIRERPPRLPRPRPRPRKQPRP , state whether its shrunken log2 fold change is at least -0.1.
Response given: Condition met

Challenge: Kindly determine if shrunken log2 fold change recorded for RRIRSRPPRLPRPRPRPILHPRP is above or exactly -0.1.
Response given: Condition not met

Challenge: Assess whether reported shrunken log2 fold change for RRIRVRPPRLPRPRPRPINTPRP sits at -0.1 or higher.
Response given: Condition not met

Challenge: Textbook exercise: given the entry RRIRTRPPRLPRPRPRPKHLPRP , state whether its shrunken log2 fold change is greater than or equal to -0.1.
Response given: Condition not met

Challenge: Threshold query (shrunken log2 fold change >= -0.1) on RRIRFRPPRLPRPRPRPYGAPRP
Response given: Condition not met

Challenge: API: above_or_equal(metric=shrunken log2 fold change, cutoff=-0.1) for item RRIRARPPRLPRPRPRPHILPRP
Response given: Condition not met

Challenge: Could you please find out whether RRIRCRPPRLPRPRPRPFNLPRP has shrunken log2 fold change that meets -0.1 or exceeds it?
Response given: Condition not met

Challenge: Does shrunken log2 fold change meet or surpass -0.1 for RRIRCRPPRLPRPRPRPHNLPRP ?
Response given: Condition not met

Challenge: Determine whether measured shrunken log2 fold change meets or exceeds -0.1 for RRIRKRPPRLPRPRPRPTELPRP
Response given: Condition met

Challenge: Has RRIRTRPPRLPRPRPRPLKWPRP a recorded shrunken log2 fold change greater than or equal to -0.1?
Response given: Condition not met

Challenge: Please tell me: is the sequence RRIRTRPPRLPRPRPRPPYDPRP at or over -0.1 in terms of shrunken log2 fold change?
Response given: Condition not met

Challenge: Assess whether reported shrunken log2 fold change for RRIRARPPRLPRPRPRPHIRPRP sits at -0.1 or higher.
Response given: Condition met

Challenge: Can RRIRCRPPRLPRPRPRPMVNPRP be said to have shrunken log2 fold change at or above -0.1?
Response given: Condition met

Challenge: Entry RRIRQRPPRLPRPRPRPLQVPRP : is its shrunken log2 fold change no less than -0.1?
Response given: Condition met
